Reference source for all entries: paper PMC1525162

Target: T1, CLR-RAMP1 heterodimer, wild type calcitonin-like receptor (CLR) with receptor-activity-modifying protein-1 (RAMP1), Q16602
T1 chain 1: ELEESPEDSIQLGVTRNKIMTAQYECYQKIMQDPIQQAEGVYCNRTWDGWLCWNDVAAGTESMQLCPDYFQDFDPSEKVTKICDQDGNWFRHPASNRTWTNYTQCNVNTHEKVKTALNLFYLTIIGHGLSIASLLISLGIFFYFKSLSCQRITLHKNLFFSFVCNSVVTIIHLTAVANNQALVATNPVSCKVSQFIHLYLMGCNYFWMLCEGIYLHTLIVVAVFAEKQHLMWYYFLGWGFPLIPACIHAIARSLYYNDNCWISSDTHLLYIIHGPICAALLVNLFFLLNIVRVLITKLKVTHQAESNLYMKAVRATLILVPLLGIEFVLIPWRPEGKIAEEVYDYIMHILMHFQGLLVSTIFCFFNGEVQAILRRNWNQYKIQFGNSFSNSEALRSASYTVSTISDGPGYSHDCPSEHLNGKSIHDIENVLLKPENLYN
T1 chain 2: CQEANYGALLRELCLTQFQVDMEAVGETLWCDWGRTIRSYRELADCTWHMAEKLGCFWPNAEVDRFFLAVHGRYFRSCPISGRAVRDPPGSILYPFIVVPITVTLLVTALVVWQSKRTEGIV
Experiment: radioligand binding; competition: increasing unlabeled peptide against specific [125I-Tyr]CGRP(8–37) binding on crude membranes of transiently transfected HEK293T-RAMP1 cells, same buffer as the saturation binding; Ki from IC50 by the method of Cheng and Prusoff
observed property: Ki

// query Can you look up the measured Ki of ACDTATCVTHRLAGLLSRS (modifications not checked) [CGRP(1–19)] for me?
// result > 10 µM
